molecular target: Beta-2 adrenergic receptor (Homo sapiens); assay: Ratio of Ki for Nb69-fused beta2 adrenergic receptor (unknown origin) to Ki for Nb80-fused beta2 adrenergic receptor (unknown origin)
endpoint: Ratio Ki

>>> reading("CC(NC1CC(c2ccc(F)cc2)C1)c1ccc(Cl)cc1 (stereo unspecified)")
9.4
>>> reading("COc1ccc2c(c1)c(CCN)cn2C")
1.8
>>> reading("COc1ccc2c(c1)c(CCNCCCc1ccc(Cl)cc1)cn2C")
7.5

* * *

target: UniProt P07550; assay: Displacement of [3H]-DHA from Nb69-fused beta2 adrenergic receptor (unknown origin) expressed in Sf9 cell membranes after 2 hrs by microbeta scintillation counting method
pKi: −log10 of the molar value.
endpoint: pKi

>>> reading("CNCc1ccc(-c2nccs2)cc1")
3.44
>>> reading("Cc1ccccc1C(C)NCc1ccc(-c2ncccn2)cc1 (stereo unspecified)")
3.57
>>> reading("COc1ccc2c(c1)c(CCN)cn2C")
4.44

(I) COc1ccc2c(c1)c(CCNCCCc1cccc(C(F)(F)F)c1)cn2C
(II) C[C@H](CC(F)(F)F)NCc1ccc(-c2nccs2)cc1
Challenge: Of I and II , which one carries the higher reported pKi? State the label of the item chosen.
Response given: I
(I: 4.60, II: 3.41)

* * *

target: Beta-2 adrenergic receptor (Homo sapiens, UniProt P07550); experiment: Displacement of [3H]-DHA from Nb69-fused beta2 adrenergic receptor (unknown origin) expressed in Sf9 cell membranes after 2 hrs by microbeta scintillation counting method
Sequence (P07550 whole entry, looked up, the tested form may be a part): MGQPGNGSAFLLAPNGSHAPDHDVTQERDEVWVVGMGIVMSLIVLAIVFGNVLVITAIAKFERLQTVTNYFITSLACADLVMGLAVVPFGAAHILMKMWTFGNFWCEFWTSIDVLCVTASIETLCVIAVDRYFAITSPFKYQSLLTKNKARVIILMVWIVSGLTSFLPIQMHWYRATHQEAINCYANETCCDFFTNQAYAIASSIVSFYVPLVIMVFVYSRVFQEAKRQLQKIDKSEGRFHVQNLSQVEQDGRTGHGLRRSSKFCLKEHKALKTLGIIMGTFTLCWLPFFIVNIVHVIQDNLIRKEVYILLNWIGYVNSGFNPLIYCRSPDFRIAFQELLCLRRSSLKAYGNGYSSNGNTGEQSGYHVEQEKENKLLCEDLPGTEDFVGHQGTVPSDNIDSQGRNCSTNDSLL
endpoint: Ki (µM)

>>> reading("COc1ccc2c(c1)c(CCNCc1cc(OC(F)(F)F)ccc1F)cn2C")
83.8

(I) COc1ccc2c(c1)c(CCNCCCc1ccc(Cl)cc1)cn2C
(II) CC(NC1CC(c2ccc(F)cc2)C1)c1ccc(Cl)cc1 (configuration not stated)
(III) CNCc1cc2ccccc2s1
Challenge: List the 3 entries from lowest Ki to highest Ki value. Labels, requested order.
Response given: I, II, III

* * *

molecular target: Beta-2 adrenergic receptor (Homo sapiens); experiment: Displacement of [3H]-DHA from Nb80-fused beta2 adrenergic receptor (unknown origin) expressed in Sf9 cell membranes after 2 hrs by microbeta scintillation counting method
pKi: −log10 of the molar value.
endpoint: pKi

>>> reading("CC(NC1CC(c2ccc(F)cc2)C1)c1ccc(Cl)cc1 (stereo not drawn)")
5.10
>>> reading("COc1ccc2c(c1)c(CCN)cn2C")
4.69
>>> reading("OCC(NCc1ccc(-c2nccs2)cc1)c1ccco1 (stereo not drawn)")
4.02
>>> reading("COc1ccc2c(c1)c(CCNCCCc1ccc(Cl)cc1)cn2C")
6.28
>>> reading("C[C@H](CC(F)(F)F)NCc1ccc(-c2nccs2)cc1")
4.28
>>> reading("NCc1ccc(-c2ncccn2)cc1")
4.11
>>> reading("Cc1ccccc1C(C)NCc1ccc(-c2ncccn2)cc1 (stereo not drawn)")
5.36
>>> reading("COc1ccc2c(c1)c(CCNCc1cc(OC(F)(F)F)ccc1F)cn2C")
4.09
>>> reading("CC(N)c1ccc(Cl)cc1 (stereo not drawn)")
4.47
>>> reading("CNCc1ccc(-c2nccs2)cc1")
4.47

(A) CNCc1cc2ccccc2s1
(B) COc1ccc2c(c1)c(CCNCCCc1cccc(C(F)(F)F)c1)cn2C
Challenge: Of A and B , which one carries the higher reported pKi? State the label of the item chosen.
Response given: B
